- Measured on: Neuropeptide Y receptor type 2 (Homo sapiens)
- Method notes: blockers of human neuropeptide Y Y2 receptor – cell-based, primary screen (AID 793);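 further: 0% = vehicle with agonist challenge and 100% = reference antagonist with challenge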
- Condition label: NPY-Y2 expressing cells, antagonist mode; at 2.7 µM
The whole screen tested about 140,000 compounds, of which about 1,400 (1%) were called active. No stated cut-off is given here; in the data, active means inhibition above about 17%; inactive means the rest. Only a selection was taken, and actives are over-represented in it overall.
Field 'call' accepts 1 (active), 0 (inactive)

Answered examples (5):
| Compound | Class name |
| --- | --- |
| COc1ccc(C(CC(=O)O)NC(=O)Cc2ccccc2)cc1 (stereo not given) | 0 |
| COc1ccc(OC)c2c(N)c(C#N)c(C(F)(F)C(F)(F)F)nc12 | 0 |
| CCC[C@@H]1C[C@@]1(CCC)[C@@H](NC(=O)c1ccccc1)c1ccc(C(=O)OC)cc1 | 0 |
| Cc1cnc(NC(=O)CSc2nnc(-c3ccc(Cl)cc3Cl)n2N)s1 | 0 |
| N#Cc1c(N)nc2c3c(sc(=N)c2c1N)NC(=O)CC3c1ccccc1Cl (stereo not given) | 0 |

For this compound, state the assay outcome: COc1ccc(Cl)cc1NC(=O)COC(=O)C(CC(C)C)N1C(=O)C2CC=CCC2C1=O (stereo not given) 0

Name the outcome recorded for COc1cccc(NC(=O)CC(c2ccc(OC(C)C)cc2)c2ccccc2OC)c1 (stereo not given) in the assay. 0

What did this assay record as the result for CCCCC1S/C(=N/N=C/c2cccs2)NC1=O (stereo not given) ? 0

Hey, what did the test say about CCC/C=C(\CCC)C(NC(=O)Cc1ccccc1)c1ccc(C(=O)OC)cc1 (stereo not given) ? 1

Tell me the recorded outcome of this test for O=C(O)/C(=C/c1cccnc1)NC(=O)c1ccccc1 . 0
